assay-system: T1, ANK domain of Notch1 intracellular segment N1ICD (UniProt P46531 1872-2126)
T1 chain: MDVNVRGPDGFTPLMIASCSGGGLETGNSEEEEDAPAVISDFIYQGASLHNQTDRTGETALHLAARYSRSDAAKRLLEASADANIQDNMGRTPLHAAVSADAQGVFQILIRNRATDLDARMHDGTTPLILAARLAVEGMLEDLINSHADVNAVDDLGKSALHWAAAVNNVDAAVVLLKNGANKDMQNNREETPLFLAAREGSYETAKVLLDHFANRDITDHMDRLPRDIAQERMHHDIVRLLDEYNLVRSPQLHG
measurement-description: SPR
Bridges are numbered along the chain shown (N, C = ends). Where no end group is shown, it is not given here. [ ]: non-standard residue; d: D form. S5 = C=CCCC[C@](C)(N)C(=O)O
metric-name: Kd (nM)

Consider the following illustrative entries.
Kd for YAKRAFYQLLSKQL [mAH2-5] ?
57.5

Moving on to the next binder: YAKRIFYQLLSKAL [mAH2-13]
99

Now consider YAKRIFYQLASKQL [mAH2-10] and answer again.
55.5

a: [S5]AKR[S5]FYQLLSKQL (staple 1-5) [SAH-mAH2-1]
b: YAKRI[S5]YQLLSK[S5]L (staple 6-13) [SAH-mAH2-5 (stapled α-helix-modified α-helix 2-5)]
Higher Kd between a and b ? In your reply, give the label of the chosen option.
a

Recorded values, source patent US20230416305A1.
